Provenance of the data: paper PMC9227119

Each record here notes measured Ka × 10^3 (binding/association constant, ITC).
# Assay target: Acetylcholinesterase from Electrophorus electricus (electric eel) (AChE) (Electrophorus electricus, UniProt O42275)
# Sequence (O42275 24-633): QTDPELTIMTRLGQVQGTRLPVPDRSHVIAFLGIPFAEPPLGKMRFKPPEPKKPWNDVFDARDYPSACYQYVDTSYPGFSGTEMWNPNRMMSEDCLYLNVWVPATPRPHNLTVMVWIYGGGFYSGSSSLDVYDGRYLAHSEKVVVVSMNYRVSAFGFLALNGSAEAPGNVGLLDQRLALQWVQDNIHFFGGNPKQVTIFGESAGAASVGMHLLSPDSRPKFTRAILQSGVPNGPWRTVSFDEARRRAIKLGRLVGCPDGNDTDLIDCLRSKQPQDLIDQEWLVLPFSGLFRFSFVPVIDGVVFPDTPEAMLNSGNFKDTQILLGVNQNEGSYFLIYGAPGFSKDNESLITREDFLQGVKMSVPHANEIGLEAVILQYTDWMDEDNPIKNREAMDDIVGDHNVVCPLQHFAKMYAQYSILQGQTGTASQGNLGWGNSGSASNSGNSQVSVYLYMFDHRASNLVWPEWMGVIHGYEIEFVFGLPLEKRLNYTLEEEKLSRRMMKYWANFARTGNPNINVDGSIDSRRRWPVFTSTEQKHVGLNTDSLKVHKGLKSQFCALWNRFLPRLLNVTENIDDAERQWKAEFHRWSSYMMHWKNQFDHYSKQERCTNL
# Procedure summary: ITC: titration of AChE with ligand, complexation (association) constant
# Format: binding
# Settings: ITC, 36.6 °C; one binding site model

COc1cc(CC(=O)O)ccc1O; 136.05 × 10^3 L/mol
O=C(O)c1ccc(O)c(O)c1; 57.63 × 10^3 L/mol
O=C(O)c1cc(O)c(O)c(O)c1; 51.55 × 10^3 L/mol

*Q* Consider the molecule C[C@H](Cc1ccc(O)c(O)c1)[C@@H](C)Cc1ccc(O)c(O)c1 [nordihydroguaiaretic acid] and give its measured Ka × 10^3 (binding/association constant, ITC).
*A* 57.80 × 10^3 L/mol
